Molecular target: PAR2 (HT-29 cells) (Homo sapiens)
Construct: host or cells: HT-29
Sequence (P55085 26-397): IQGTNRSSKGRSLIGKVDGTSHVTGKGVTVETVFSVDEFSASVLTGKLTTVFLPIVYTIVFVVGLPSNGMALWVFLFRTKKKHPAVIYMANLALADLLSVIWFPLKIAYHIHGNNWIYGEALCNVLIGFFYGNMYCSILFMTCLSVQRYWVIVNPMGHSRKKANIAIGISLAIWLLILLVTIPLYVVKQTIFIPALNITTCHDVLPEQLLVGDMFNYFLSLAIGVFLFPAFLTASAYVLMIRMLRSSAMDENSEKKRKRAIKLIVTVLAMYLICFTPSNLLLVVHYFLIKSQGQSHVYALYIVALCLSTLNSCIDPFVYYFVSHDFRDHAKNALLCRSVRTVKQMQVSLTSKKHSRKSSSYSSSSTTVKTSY
Assay: Ca FLIPR TETRA assay, ANTAGONIST mode, activator 3.1 U/mL trypsin
Format: cell-based
Settings: HT-29 cells, activator 3.1 U/mL trypsin; maximal antagonist concentration per Method (A: 0.1, 1 or 2 μM; B: 50 μM)
pIC50: −log10 of the molar value.
PROPERTY MEASURED: pIC50

- MOLECULE: "CC(C)(C)c1cc(-c2ccc(F)cc2)nc2cc(C(=O)N3CCN(S(=O)(=O)C4CC4)CC3(C)C)oc12"
  TARGET OR SYSTEM: "PAR2 (HT-29 cells) (Homo sapiens)"
  pIC50: 8.22
- MOLECULE: "[2H]C([2H])([2H])N1CCN(C(=O)c2cc3nc(-c4cccc(Cl)c4)cc(C(C)(C)C)c3o2)C(C)(C)C1=O"
  TARGET OR SYSTEM: "PAR2 (HT-29 cells) (Homo sapiens)"
  pIC50: 7.55
- MOLECULE: "Cc1cn[nH]c1N1CCN(C(=O)c2cc3nc(-c4ccc(F)cc4)cc(C(C)(C)C)c3o2)C(C)(C)C1=O"
  TARGET OR SYSTEM: "PAR2 (HT-29 cells) (Homo sapiens)"
  pIC50: 7.70
- MOLECULE: "CC1(c2cc(-c3ccc(F)cc3)nc3cc(C(=O)N4CCN(C(=O)C5(c6ccc(Cl)cc6)CC5)CC4(C)C)oc23)CC1"
  TARGET OR SYSTEM: "PAR2 (HT-29 cells) (Homo sapiens)"
  pIC50: 7.13
- MOLECULE: "CCC(O)(CC)C(=O)N1CCN(C(=O)c2cc3nc(-c4ccc(F)cc4)cc(C(C)C)c3o2)C(C)(C)C1"
  TARGET OR SYSTEM: "PAR2 (HT-29 cells) (Homo sapiens)"
  pIC50: 7.28

P: CC(C)c1cc(-c2ccc(F)cc2)nc2cc(C(=O)N3CCN(C(=O)c4ccn(C)n4)CC3(C)C)oc12
Q: CC(C)c1cc(-c2ccc(F)cc2)nc2cc(C(=O)N3CCN(C(=O)[C@H](O)C(C)C)CC3(C)C)oc12
R: CC(C)(C)c1cc(-c2ccc(F)cc2)nc2cc(C(=O)N3CCN(C(=O)c4n[nH]c(=O)[nH]4)CC3(C)C)oc12
S: Cc1nc(C(=O)N2CCN(C(=O)c3cc4nc(C5CCC(F)(F)CC5)cc(C(C)(C)C)c4o3)C(C)(C)C2=O)n[nH]1
T: CNS(=O)(=O)CCC(=O)N1CCN(C(=O)c2cc3nc(C4CCC(F)(F)CC4)cc(C(C)(C)C)c3o2)C(C)(C)C1
Prompt: List by increasing pIC50. Kindly provide the labels arranged according to the requested ordering.
Completion: T, S, R, Q, P
(T: 6.64, S: 7.24, R: 7.70, Q: 8.11, P: 8.38)

a: CC1(O)CC(C(=O)C2CCN(C(=O)c3cc4nc(-c5ccc(F)cc5)cc(C5(C#N)CC(F)(F)C5)c4o3)C(C)(C)C2)C1 (centres unmarked)
b: CC(C)c1cc(-c2ccc(F)cc2)nc2cc(C(=O)N3CCN(C(=O)c4ccn[nH]4)CC3(C)C)oc12
c: Cc1ncc(S(=O)(=O)N2CCN(C(=O)c3cc4nc(-c5ccc(F)cc5)cc(C(C)C)c4o3)C(C)(C)C2)n1C
Prompt: List by increasing pIC50. Kindly provide the labels arranged according to the requested ordering.
Completion: c, b, a
(c: 7.38, b: 7.80, a: 8.40)
